biological target: recombinant human CYP11B2 (Homo sapiens); construct: enzyme-enriched microsomal fraction of the lysate; assay: CYP11B2 enzyme assay with enzyme enriched microsomes, aldosterone measured by LC-MS; details: microsomes from V79-4 cells; 11-deoxycorticosterone at Km; read-out: hCYP11B2 IC50
Sequence (P19099 25-503): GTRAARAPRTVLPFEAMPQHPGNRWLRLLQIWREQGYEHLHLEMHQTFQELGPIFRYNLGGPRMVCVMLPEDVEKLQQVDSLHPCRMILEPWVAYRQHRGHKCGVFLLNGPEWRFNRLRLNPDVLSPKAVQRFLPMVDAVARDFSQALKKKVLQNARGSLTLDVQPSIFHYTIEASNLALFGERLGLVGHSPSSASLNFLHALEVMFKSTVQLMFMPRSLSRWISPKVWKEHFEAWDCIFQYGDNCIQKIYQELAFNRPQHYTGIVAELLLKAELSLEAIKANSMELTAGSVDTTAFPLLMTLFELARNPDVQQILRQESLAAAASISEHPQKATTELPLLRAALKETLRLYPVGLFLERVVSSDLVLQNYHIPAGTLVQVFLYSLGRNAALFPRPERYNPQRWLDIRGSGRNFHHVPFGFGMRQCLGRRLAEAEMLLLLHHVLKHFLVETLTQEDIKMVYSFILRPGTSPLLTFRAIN
# IC50 annotations

Some compounds with known IC50 results, for comparison:
> print(dat)
                         chemical.structure                           subject.of.test            result
1  N#Cc1ccc2nc(-n3cnc4cc(F)c(F)cc43)n(C3CC3)c2n1  recombinant human CYP11B2 (Homo sapiens)       1 to 100 nM
2  CS(=O)(=O)Nc1ccc2ncn(-c3nc4ccc(C#N)cc4n3C3CC3)c2c1  recombinant human CYP11B2 (Homo sapiens)  1000 to 10000 nM
3  CS(=O)(=O)Nc1ccc2ncn(-c3nc4cc(F)c(F)cc4n3C3CC3)c2c1  recombinant human CYP11B2 (Homo sapiens)  1000 to 10000 nM

From here, focus on the item given below.
Quick one: IC50 of CS(=O)(=O)N(c1ccc2c(c1)ncn2-c1nc2ccc(F)c(F)c2n1C1CC1)S(C)(=O)=O ?
1000 to 10000 nM
